target-entity: Cyno in house BCMA
Sequence (as listed by the source): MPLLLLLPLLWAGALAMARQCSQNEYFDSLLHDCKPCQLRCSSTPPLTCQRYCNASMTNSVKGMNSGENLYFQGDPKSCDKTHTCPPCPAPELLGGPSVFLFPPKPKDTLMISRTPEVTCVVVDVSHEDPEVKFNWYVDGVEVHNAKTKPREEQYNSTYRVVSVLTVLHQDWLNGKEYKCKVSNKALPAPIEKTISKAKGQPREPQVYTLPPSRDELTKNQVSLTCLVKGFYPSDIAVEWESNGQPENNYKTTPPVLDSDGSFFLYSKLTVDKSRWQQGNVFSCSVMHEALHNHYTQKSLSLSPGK
measurement-protocol: BIAcore analysis J7 to J9 series, cyno in house BCMA
Type: binding
cond: 37° C., in s-1 (unit assumed)
value-kind: kd

CA8 humanised J9M2: humanised CA8 anti-BCMA antibody, VH J9 (SEQ ID NO:29) + VL M2 (SEQ ID NO:35) (antibody, V domains shown, Humansed antibody sequence) VH: QVQLVQSGAEVKKPGSSVKVSCKGSGYTFTNYWMHWVRQAPGQGLEWIGATYRGHSDTYYNQKFKGRATLTADTSTSTAYMELSSLRSEDTAVYYCTRGAIYDGYDVLDNWGQGTLVTVSS VL: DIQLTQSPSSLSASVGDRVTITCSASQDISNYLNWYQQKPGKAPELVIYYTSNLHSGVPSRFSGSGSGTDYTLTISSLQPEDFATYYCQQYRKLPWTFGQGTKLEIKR ... 2.52E−04
CA8 humanised J9M1: humanised CA8 anti-BCMA antibody, VH J9 (SEQ ID NO:29) + VL M1 (SEQ ID NO:33) (antibody, V domains shown, Humansed antibody sequence) VH: QVQLVQSGAEVKKPGSSVKVSCKGSGYTFTNYWMHWVRQAPGQGLEWIGATYRGHSDTYYNQKFKGRATLTADTSTSTAYMELSSLRSEDTAVYYCTRGAIYDGYDVLDNWGQGTLVTVSS VL: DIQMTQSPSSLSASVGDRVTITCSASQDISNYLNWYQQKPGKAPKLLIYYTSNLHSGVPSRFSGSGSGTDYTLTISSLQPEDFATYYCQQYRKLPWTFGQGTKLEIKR ... 2.99E−04
CA8 humanised J7M1: humanised CA8 anti-BCMA antibody, VH J7 (SEQ ID NO:25) + VL M1 (SEQ ID NO:33) (antibody, V domains shown, Humansed antibody sequence) VH: QVQLVQSGAEVKKPGSSVKVSCKASGYTFTNYWMHWVRQAPGQGLEWMGATYRGHSDTYYNQKFKGRVTITADKSTSTAYMELSSLRSEDTAVYYCARGAIYDGYDVLDNWGQGTLVTVSS VL: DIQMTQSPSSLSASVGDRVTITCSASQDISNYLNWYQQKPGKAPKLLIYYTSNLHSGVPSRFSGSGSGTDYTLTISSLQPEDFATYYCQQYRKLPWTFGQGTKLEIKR ... 3.91E−04
CA8 humanised J7M2: humanised CA8 anti-BCMA antibody, VH J7 (SEQ ID NO:25) + VL M2 (SEQ ID NO:35) (antibody, V domains shown, Humansed antibody sequence) VH: QVQLVQSGAEVKKPGSSVKVSCKASGYTFTNYWMHWVRQAPGQGLEWMGATYRGHSDTYYNQKFKGRVTITADKSTSTAYMELSSLRSEDTAVYYCARGAIYDGYDVLDNWGQGTLVTVSS VL: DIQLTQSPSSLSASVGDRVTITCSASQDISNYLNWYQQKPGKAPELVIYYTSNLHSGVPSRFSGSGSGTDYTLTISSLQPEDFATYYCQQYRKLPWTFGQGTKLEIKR ... 4.47E−04

This collection of values is drawn from patent US11419945B2.
